# experiment.description: In vivo pharmacokinetics in rats after single administration
# condition.summary: male, Sprague-Dawley, rat, plasma, 10 mg/kg, 10 mpk oral administration
reported.metric: AUC(0-inf) (µM·h)

{"smiles.representation": "COCCN1C[C@@H](n2ccc(F)c2)[C@H](NC(=O)Nc2c(C)c(-c3cnc(C4(F)COC4)nc3)nn2-c2ccccc2)C1", "reported.metric": "AUC(0-inf)", "readout.number": 3.24}

====

# system: CYP2C9 (Homo sapiens)
# Construct: from tissue; host or cells: human liver microsomes
# Sequence (P11712 whole entry): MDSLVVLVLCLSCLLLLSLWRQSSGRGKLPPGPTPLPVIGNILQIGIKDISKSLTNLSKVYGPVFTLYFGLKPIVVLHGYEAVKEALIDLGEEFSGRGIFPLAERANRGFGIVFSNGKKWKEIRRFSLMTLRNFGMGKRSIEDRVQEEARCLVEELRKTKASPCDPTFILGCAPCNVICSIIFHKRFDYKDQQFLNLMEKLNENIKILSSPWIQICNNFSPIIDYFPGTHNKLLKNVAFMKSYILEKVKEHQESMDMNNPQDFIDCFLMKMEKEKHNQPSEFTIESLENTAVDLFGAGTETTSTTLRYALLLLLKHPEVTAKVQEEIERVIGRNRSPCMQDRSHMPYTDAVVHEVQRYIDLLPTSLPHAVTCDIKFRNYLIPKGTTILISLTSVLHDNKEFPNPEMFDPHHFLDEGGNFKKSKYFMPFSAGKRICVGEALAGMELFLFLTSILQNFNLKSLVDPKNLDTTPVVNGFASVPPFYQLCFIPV
# experiment.description: Cytochrome P450 isozyme inhibitory activity test, CYP2C9
# Type: in vitro ADME
# condition.summary: human, human liver microsomes

{"smiles.representation": "COCCN1C[C@@H](n2cc(F)c(F)c2)[C@H](NC(=O)Nc2c(C)c(-c3cnc4c(c3)COC4)nn2-c2ccccc2)C1", "system": "CYP2C9 (Homo sapiens)", "IC50 at 10 min (µM)": 24.2}

====

# experiment.description: Metabolic stability (MMS) by human liver microsome
# Type: in vitro ADME
# condition.summary: liver microsomes, pH 7.4, 0.5 mg protein/mL, read-out: Intrinsic clearance by liver microsome, Human
Listed compounds paired with reported CLint scaled
reported.metric: CLint scaled (mL/min/kg)

{"compound": "COCCN1C[C@@H](NC(=O)Nc2c(C)c(-c3cnc(C)nc3)nn2-c2ccccc2)[C@H](c2cccc(F)c2)C1 [Reference compound D1, reference compound]", "readout.number": 52.1}
{"compound": "COCCN1C[C@@H](n2cc(F)c(F)c2)[C@H](NC(=O)Nc2c(C)c(-c3cnc4c(c3)CN(C)C4)nn2-c2ccccc2)C1", "readout.number": 54.6}

====

# experiment.description: In vivo pharmacokinetics in beagle dogs after single administration
# condition.summary: male, beagle, dog, plasma, 10 mg/kg; dogs, 10 mpk oral administration
reported.metric: Tmax (min)

{"smiles.representation": "COCCN1C[C@@H](n2ccc(F)c2)[C@H](NC(=O)Nc2c(C)c(-c3cnc(C4(F)COC4)nc3)nn2-c2ccccc2)C1", "readout.number": 37.8}

====

Dear all, this message contains IC50 results, target or system TrkA (Homo sapiens).

{"smiles.representation": "COCCN1C[C@@H](n2ccc(F)c2)[C@H](NC(=O)Nc2c(C)c(-c3cnc4c(c3)COC4)nn2-c2ccccc2)C1", "IC50, nM": 0.24}
{"smiles.representation": "COCCN1C[C@@H](n2ccc(F)c2)[C@H](NC(=O)Nc2c(C)c(-c3cc4n(n3)CCC4)nn2-c2ccccc2)C1", "IC50, nM": 3.05}
{"smiles.representation": "COCCN1C[C@@H](n2cc(F)c(F)c2)[C@H](NC(=O)Nc2c(C)c(-c3cnc4c(c3)CN(C)C4)nn2-c2ccccc2)C1", "IC50, nM": 0.27}
{"smiles.representation": "COCCN1C[C@@H](n2cc(F)c(F)c2)[C@H](NC(=O)Nc2c(C)c(-c3cnc(C4(F)COC4)nc3)nn2-c2ccccc2)C1", "IC50, nM": 0.27}

====

# experiment.description: In vivo pharmacokinetics in beagle dogs after single administration
# condition.summary: male, beagle, dog, plasma, 10 mg/kg; dogs, 10 mpk oral administration

{"molecule": "COCCN1C[C@@H](n2ccc(F)c2)[C@H](NC(=O)Nc2c(C)c(-c3cnc(C4(F)COC4)nc3)nn2-c2ccccc2)C1 [Compound 7]", "units.label": "h", "half-life": 2.2}
